Reported Endpoint: melting point

CCn1c(-c2cccc(NS(=O)(=O)NC(C)C)c2)c(C#N)c2ccc(OC)cc21 :: 186 to 188 °C
C=CCNC(=O)Nc1cccc(-c2c(C#N)c3ccc(OC)cc3n2Cc2ccccc2)c1 :: 158 to 159 °C
CCCOC(=O)Nc1ccc(-c2c(C#N)c3cc(OC)ccc3n2CC)cc1 :: 149 to 151 °C
CCn1c(C#Cc2ccc(NC(=O)C3CCC3)cc2)c(C#N)c2ccc(OC)cc21 :: 225 to 228 °C
CCn1c(-c2ccc(NS(=O)(=O)CC)cc2)c(C#N)c2ccc(OCc3cccnc3)cc21 :: 213 to 215 °C
CCn1c(-c2ccc(NC(=O)OC)cc2)c(C#N)c2cc(OC)ccc21 :: 182 to 185 °C

Fill blank: measured melting point of the molecule CCS(=O)(=O)Nc1ccc(-c2c(C#N)c3ccc(OC)cc3n2C2CCC2)cc1 is ____.
158 to 160 °C

Entry to check: C=Cn1c(-c2ccc(NS(=O)(=O)CC)cc2)c(C#N)c2ccc(OC)cc21
159 to 161 °C

Entry to check: CCn1c(C#Cc2ccc(NC(=O)COC)cc2)c(C#N)c2ccc(OC)cc21
191 to 195 °C

Entry to check: CCCn1c(-c2ccc(NS(=O)(=O)CC)cc2)c(C#N)c2ccc(OCC)cc21
183 to 184 °C

Entry to check: CCOc1ccc2c(C#N)c(-c3ccc(NS(=O)(=O)CC)cc3)n(C3CCC3)c2c1
189 to 191 °C

Entry to check: CCOc1ccc2c(C#N)c(-c3ccc(NS(C)(=O)=O)cc3)n(C)c2c1
184 to 185 °C

Entry to check: CCCCn1c(-c2ccc(NC(=O)OCCF)cc2)c(C#N)c2ccc(OC)cc21
136 to 137 °C

Entry to check: CCn1c(NC(C)=O)c(C#N)c2ccc([N+](=O)[O-])cc21
291 to 293 °C

Entry to check: CCn1c(C#Cc2cccc(NC=O)c2)c(C#N)c2ccc(OC)cc21
174 to 177 °C

Entry to check: CCOc1ccc2c(C#N)c(-c3ccc(N(C)S(C)(=O)=O)cc3)n(C)c2c1
203 to 205 °C

Entry to check: CCn1c(-c2ccc(NC(=O)C3CCC3)cc2)c(C#N)c2ccccc21
238.2 to 238.6 °C

Entry to check: CCCOC(=O)Nc1ccc(-c2c(C#N)c3ccc(OC(F)F)cc3n2CC2CC2)cc1
125 to 126 °C

Values from patent US8013006B2
